IC50 values for Histone deacetylase 1 (Homo sapiens, UniProt Q13547), compiled from several publications.

Completed entries (count: 5):
1. CC(C)(F)CN1CC=C(c2ccnc3c2ccn3Cc2ccc(C(=O)NO)cc2)CC1 = 1090 nM
2. CC1(C)C(=O)N(Cc2ccc(-c3nnc(C(F)F)o3)cn2)C(=O)c2cc(N3CCOCC3)ccc21 = > 10000 nM
3. O=c1c2ccccc2n(CCN2CCCCC2)c(=O)n1Cc1ccc(-c2nnc(C(F)F)o2)cc1 = > 10000 nM
4. Cc1cnn(CCN2CCC[C@H]2c2ccc(/C=C/C(=O)NO)cc2)c1 = 62 nM
5. CCC(=O)CCCCC[C@H](NC(=O)CCN(C)C)c1ncc(-c2ccccc2)o1 = < 100 nM

input: Return reported IC50; argument: Nc1ccc(-c2ccccc2)cc1NC(=O)C1CCN(S(=O)(=O)c2ccc([N+](=O)[O-])cc2)CC1
output: < 1000 nM

input: Please answer likewise for O=C(NO)c1ccc(Cn2ccc(C3(c4ccc(F)cc4)CCCCO3)cc2=O)cc1 (centres unmarked)
output: 50 to 200 nM

input: Please answer likewise for CCCN1CCC(c2ccc3c(c2)C(=O)N(Cc2ccc(-c4nnc(C(F)F)o4)cn2)C(=O)C3(C)C)CC1
output: > 10000 nM

* * *

IC50 values for Histone deacetylase 1 (Homo sapiens, UniProt Q13547), compiled from several publications.
READOUT LABEL: IC50 (nM)

1. Cn1c(N2CCN(Cc3ccc(/C=C/C(=O)NO)cc3)CC2)cccc1=O = 170
2. O=C(/C=C/c1ccc(CN2CCN(S(=O)(=O)c3ccc(F)cc3)CC2)cc1)NO = 260
3. CC1CCN(c2cnc3c(ccn3Cc3ccc(C(=O)NO)cc3)c2)CC1 = 1610

1. CCCNNC(=O)c1ccc(-c2ccc(NC(=O)COCCOCCOCCNc3cccc4c3C(=O)N(C3CCC(=O)NC3=O)C4=O)cc2)cc1 (centres unmarked)
2. CCCCc1nc2cc(/C=C/C(=O)NO)ccc2n1CCN(CC)CC
input: Two entries are listed, 1 and 2 . Which one carries the higher IC50? Could you answer with the label of the item you picked?
output: 1

* * *

IC50 values for Histone deacetylase 1 (Homo sapiens, UniProt Q13547), compiled from several publications.

Completed entries (count: 4):
1) CN(C)[C@H]1CCN(c2ccc(C(=O)Nc3ccccc3N)cc2)C1 = ≤ 1000 nM
2) CCC(=O)CCCCC[C@H](NC(=O)C1CCN(C)CC1)c1ncc(-c2ccccc2)o1 = < 100 nM
3) O=C(/C=C/c1ccc(CN2C[C@H](O)C[C@@H]2Cn2nc(C(F)(F)F)cc2C(F)(F)F)cc1)NO = 37 nM
4) O=C(/C=C/c1ccccc1Oc1ccccc1)NO = 1000 to 10000 nM

--- query ---
input: What is its IC50 for Histone deacetylase 1 (Homo sapiens, UniProt Q13547)? Entry: CCOC(=O)N[C@H]1CCN(c2ccc(C(=O)Nc3ccccc3N)cc2)C1
output: ≤ 500 nM

* * *

IC50 values for Histone deacetylase 1 (Homo sapiens), compiled from several publications.

Completed entries (count: 7):
1. COc1ccc(Cn2c(=O)n(Cc3ccc(-c4nnc(C(F)F)o4)cn3)c(=O)c3cc(F)ccc32)cc1 = > 10000 nM
2. Nc1cc(F)c(-c2cccs2)cc1NC(=O)c1ccc(N2CCNCC2)cn1 = 1 to 10 nM
3. CN1CCN(Cc2ccc(CN3CCC(c4ccnc5c4ccn5Cc4ccc(C(=O)NO)cc4)CC3)cc2)CC1 = 290 nM
4. Cn1c(=O)n(Cc2ccc(-c3nnc(C(F)F)o3)cn2)c(=O)c2ccccc21 = > 10000 nM
5. Cc1[nH]c2ccccc2c1C[C@H]1CCCN1[C@@H](C)c1ccc(/C=C/C(=O)NO)cc1 = 1.3 nM
6. O=C(Cc1ccc(-c2csc(NC(=O)Cc3ccccc3)n2)s1)NO = > 100000 nM
7. CCC(=O)CCCCC[C@H](NC(=O)c1nnc(C)o1)c1ncc(-c2cc3ccccc3nc2OC)o1 = < 100 nM

--- query ---
input: What is its IC50 for Histone deacetylase 1 (Homo sapiens)? Entry: CCC(=O)CCCCC[C@H](NC(=O)CCn1c(CC)nc2ccccc21)c1ncc(-c2cc3ccccc3nc2OC)o1
output: < 100 nM

* * *

IC50 values for Histone deacetylase 1 (Homo sapiens), compiled from several publications.

1) O=C(NO)c1cnc(NC2(c3ccccc3)CCN(C(=O)Nc3c(F)cccc3F)CC2)nc1 = 0.022 µM
2) O=C(CCCCCCN(c1cnccn1)c1ccc2nccn2n1)NO = 0.1 to 1 µM

input: Return reported IC50; argument: CC1(C)C(=O)N(Cc2ccc(-c3nnc(C(F)F)o3)cn2)C(=O)c2ccc(N3CCN(CC4CCCCC4)CC3)cc21
output: > 10 µM

input: Please answer likewise for CCC(=O)CCCCC[C@H](NC(=O)c1cncs1)c1ncc(-c2cc3ccccc3n(C)c2=O)o1
output: < 0.1 µM

input: Please answer likewise for CSCCc1nc2cc(/C=C/C(=O)NO)ccc2n1CC(C)(C)CN(C)C
output: 0.12 µM

* * *

IC50 values for UniProtKB Q13547, compiled from several publications.
READOUT LABEL: IC50 (nM)

1. O=C(/C=C/c1ccc([C@@H]2CCCN2CCc2cn(CCOCc3ccccc3)nn2)cc1)NO = 31

a. Nc1ccccc1NC(=O)c1ccc(N2CC[C@H](Oc3ccc4c(c3)OCO4)C2)cc1
b. CC/C=C\CCc1nc2cc(/C=C/C(=O)NO)ccc2n1CC(C)(C)CN(C)C
input: Consider entries a and b . Which has the numerically lower IC50? Could you answer with the label of the item you picked?
output: b

1. CCCCN1CCC(Cn2c(C)c(Cc3ccc(C(=O)NO)cc3)c3ccccc32)CC1
2. CCCCN(CCCC)CCn1c(CCC)nc2cc(/C=C/C(=O)NO)ccc21
3. CCOC(=O)N1CCC(Nc2ncc(C(=O)NO)cn2)(c2ccccc2)CC1
4. Cc1c(Cc2ccc(C(=O)NO)cc2)c2ccccc2n1CCN1CCC(CO)C1 (centres unmarked)
5. Nc1ccccc1NC(=O)c1ccc(N2CC[C@H](Oc3ccc([N+](=O)[O-])cc3)C2)cc1
input: Number of compounds to sort: 5. Sort criterion: IC50, ascending. # respond with the labels, arranged in the requested order
output: 5, 2, 3, 4, 1
(5: 107 nM, 2: 180 nM, 3: 275 nM, 4: 2810 nM, 1: 6110 nM)

a. O=C(NO)c1ccc(Cn2ccc3cc(C4=CCCCC4)cnc32)cc1
b. C[C@@H](NC(=O)c1ccc(C(=O)C(F)(F)F)s1)c1ccccc1
input: Two entries are listed, a and b . Which one carries the higher IC50? Could you answer with the label of the item you picked?
output: a
(a: 3550 nM, b: 710 nM)

A. O=C(CCc1ccc([C@H]2CCCN2CCc2cnn3ccccc23)cc1)NO
B. Cc1cc(C(=O)Nc2ccccc2N)ccc1-c1ccc(N2CCNCC2)cc1
input: Two entries are listed, A and B . Which one carries the higher IC50? Could you answer with the label of the item you picked?
output: B
(B: 5380 nM, A: 31 nM)

* * *

IC50 values for Histone deacetylase 1 (Homo sapiens), compiled from several publications.
READOUT LABEL: IC50 (µM)

Completed entries (count: 2):
1. O=C(NO)c1ccc(Cn2ccc3cc(C4CCN(Cc5ccc(-c6ccco6)cc5)CC4)cnc32)cc1 = 2.32
2. CCCCc1nc2cc(/C=C/C(=O)NO)ccc2n1CCNC(C)C = 0.049

1. Cc1nn(CCN2CCC[C@H]2c2ccc(/C=C/C(=O)NO)cc2)c(C)c1C
2. CCc1nc2cc(F)c(/C=C/C(=O)NO)cc2c(=O)n1-c1ccccc1
input: Consider entries 1 and 2 . Which has the numerically lower IC50? Could you answer with the label of the item you picked?
output: 1

* * *

IC50 values for Histone deacetylase 1 (Homo sapiens, UniProt Q13547), compiled from several publications.
READOUT LABEL: IC50 (nM)

1) Cc1nn(CCN2CCC[C@H]2c2ccc(/C=C/C(=O)NO)cc2)c(C)c1Br = 25

P. Cc1ccnn1CCN1CCC[C@H]1c1ccc(/C=C/C(=O)NO)cc1
Q. C=C(C)c1[nH]c2ccccc2c1C1CCCN(Cc2ccc(/C=C/C(=O)NO)cc2F)C1 (centres unmarked)
R. O=C(NO)c1ccc(Cn2ccc3cc(C4CCN(Cc5ccc(F)cc5)CC4)cnc32)cc1
S. Nc1nc(-c2ccc(/C=C/C(=O)NO)cc2)cs1
input: Number of molecules to sort: 4. Sort criterion: IC50, ascending. # respond with the labels, arranged in the requested order
output: Q, P, S, R

* * *

IC50 values for Histone deacetylase 1 (Homo sapiens, UniProt Q13547), compiled from several publications.

Completed entries (count: 3):
1. Cc1c(Cc2ccc(C(=O)NO)cc2)c2ccccc2n1CC1CCN(Cc2ccccc2F)CC1 = > 10 µM
2. CCC(=O)CCCCC[C@H](NC(=O)c1cc(C)nn1C)c1ncc(-c2cc3ccccc3nc2OC)o1 = < 0.1 µM
3. Cc1c(Cc2ccc(C(=O)NO)cc2)c2ccccc2n1CC1CCN(CC2(C(F)(F)F)CCC2)CC1 = > 10 µM

--- query ---
input: Return reported IC50; argument: CCNC(=O)O[C@H]1CCN(c2ccc(C(=O)Nc3ccccc3N)cc2)C1
output: ≤ 0.5 µM
